Ref: patent US4603217A

Assay: in vivo
Details: rat, po
measurement_type: TD50 at 6 h

> print(dat)
                                   molecule      result
1  CCC(=O)OC(C)OC(=O)Cc1c(C)n(C(=O)c2ccc(Cl)cc2)c2ccc(OC)cc12 (centres unmarked) [Compound 9]    20 mg/kg
2  C/C=C/C(=O)OCOC(=O)Cc1ccccc1Nc1c(Cl)cccc1Cl [Compound 13]    30 mg/kg
3  COc1ccc2c(c1)c(CC(=O)OC(C)OC(=O)C=C(C)C)c(C)n2C(=O)c1ccc(Cl)cc1 (centres unmarked) [Compound 11]    10 mg/kg
4  CC(=O)OC(C)OC(=O)Cc1ccccc1Nc1c(Cl)cccc1Cl (centres unmarked) [Compound 18]    30 mg/kg
5  CC(C)=CC(=O)OCOC(=O)Cc1ccccc1Nc1c(Cl)cccc1Cl [Compound 14]    30 mg/kg
6  CC=CC=CC(=O)OC(C)OC(=O)Cc1c(C)n(C(=O)c2ccc(Cl)cc2)c2ccc(OC)cc12 (centres unmarked) [Compound 12]  > 20 mg/kg
7  C/C=C/C(=O)OCOC(=O)Cc1c(C)n(C(=O)c2ccc(Cl)cc2)c2ccc(OC)cc12 [Compound 1]    15 mg/kg
8  CC(C)=CC(=O)OC(C)OC(=O)Cc1ccccc1Nc1c(Cl)cccc1Cl (centres unmarked) [Compound 20]    30 mg/kg

====

Tested on: ultraviolet erythema
Assay: inhibition action for ultraviolet erythema
Format: in vivo, male Hartley guinea pigs
Design: scale not given here
Conditions: 3 mg/kg orally, 2 hs after irradiation, guinea pigs
Listing of entries alongside the reported 2 hs after the irradiation, Average ± standard error.
measurement_type: 2 hs after the irradiation, Average ± standard error

> print(dat)
                                   molecule  result.number
1  CC=CC=CC(=O)OC(C)OC(=O)Cc1ccccc1Nc1c(Cl)cccc1Cl (stereo not shown)           1.33
2  COc1ccc2c(c1)c(CC(=O)OCCOC(C)=O)c(C)n2C(=O)c1ccc(Cl)cc1            0.5
3  C/C=C/C(=O)OCOC(=O)Cc1c(C)n(C(=O)c2ccc(Cl)cc2)c2ccc(OC)cc12           1.50
4  COc1ccc2c(c1)c(CC(=O)O)c(C)n2C(=O)c1ccc(Cl)cc1 [IM, indomethacin, reference compound]           2.17
5  O=C(O)Cc1ccccc1Nc1c(Cl)cccc1Cl [DF, diclofenac, reference compound]           1.17
6  COc1ccc2c(c1)c(CC(=O)OCOC(=O)C=C(C)C)c(C)n2C(=O)c1ccc(Cl)cc1           1.83
7  CC=CC=CC(=O)OCOC(=O)Cc1ccccc1Nc1c(Cl)cccc1Cl           1.17

====

Listing of entries alongside the reported ED50.
Tested on: carrageenan edema
Experiment: inhibition test of carrageenan edema employing a foot-pad edema method
Type: in vivo, male Wister rats
Details: Rattus norvegicus; male Wister rats, foot-pad edema; read-out: ED50 for inhibition for carrageenan edema
measurement_type: ED50 (mg/kg)

> print(dat)
                                    molecule             system  measurement.type  result.operator  result.number
 1  COc1ccc2c(c1)c(CC(=O)OCCOC(C)=O)c(C)n2C(=O)c1ccc(Cl)cc1  carrageenan edema              ED50                =              6
 2  CC(C)=CC(=O)OCOC(=O)Cc1ccccc1Nc1c(Cl)cccc1Cl  carrageenan edema              ED50                <             30
 3  COc1ccc2c(c1)c(CC(=O)OCC(=O)O)c(C)n2C(=O)c1ccc(Cl)cc1 [Acemethacin, acemethacin, reference compound]  carrageenan edema              ED50                =            8.3
 4  COc1ccc2c(c1)c(CC(=O)OCCOC(=O)C=C(C)CCC=C(C)C)c(C)n2C(=O)c1ccc(Cl)cc1  carrageenan edema              ED50                >             20
 5  C/C=C/C(=O)OC(C)OC(=O)Cc1c(C)n(C(=O)c2ccc(Cl)cc2)c2ccc(OC)cc12 (centres unmarked)  carrageenan edema              ED50                =              7
 6  CCC(=O)OC(C)OC(=O)Cc1c(C)n(C(=O)c2ccc(Cl)cc2)c2ccc(OC)cc12 (centres unmarked)  carrageenan edema              ED50                =              6
 7  C/C=C/C(=O)OCOC(=O)Cc1c(C)n(C(=O)c2ccc(Cl)cc2)c2ccc(OC)cc12  carrageenan edema              ED50                =              6
 8   CC(=O)OCCOC(=O)Cc1ccccc1Nc1c(Cl)cccc1Cl  carrageenan edema              ED50                =             20
 9  C/C=C/C(=O)OCCOC(=O)Cc1c(C)n(C(=O)c2ccc(Cl)cc2)c2ccc(OC)cc12  carrageenan edema              ED50                =             15
10  CC(C)=CC(=O)OC(C)OC(=O)Cc1ccccc1Nc1c(Cl)cccc1Cl (centres unmarked)  carrageenan edema              ED50                =             20
11  CC=CC=CC(=O)OC(C)OC(=O)Cc1ccccc1Nc1c(Cl)cccc1Cl (centres unmarked)  carrageenan edema              ED50                =             30
12  COc1ccc2c(c1)c(CC(=O)OC(C)OC(=O)C=C(C)C)c(C)n2C(=O)c1ccc(Cl)cc1 (centres unmarked)  carrageenan edema              ED50                =             15
13  COc1ccc2c(c1)c(CC(=O)OCCOC(=O)C=C(C)C)c(C)n2C(=O)c1ccc(Cl)cc1  carrageenan edema              ED50                =             15
14  C/C=C/C(=O)OC(C)OC(=O)Cc1ccccc1Nc1c(Cl)cccc1Cl (centres unmarked)  carrageenan edema              ED50                <             30

====

Experiment: in vivo
Conditions: mouse, po
measurement_type: log10 of LD50 (log10 of the value in mg/kg)

> print(dat)
                                   compound  result.number
1  C/C=C/C(=O)OC(C)OC(=O)Cc1ccccc1Nc1c(Cl)cccc1Cl (stereo not shown) [Compound 19]           2.58
2  C/C=C/C(=O)OCOC(=O)Cc1ccccc1Nc1c(Cl)cccc1Cl [Compound 13]           2.60
3  COc1ccc2c(c1)c(CC(=O)OC(C)OC(C)=O)c(C)n2C(=O)c1ccc(Cl)cc1 (stereo not shown) [Compound 8]           1.81
4  COc1ccc2c(c1)c(CC(=O)OC(C)OC(=O)C=C(C)C)c(C)n2C(=O)c1ccc(Cl)cc1 (stereo not shown) [Compound 11]           1.65
5  COc1ccc2c(c1)c(CC(=O)OCCOC(=O)C=C(C)CCC=C(C)C)c(C)n2C(=O)c1ccc(Cl)cc1 [Compound 7]           2.89
6  CCC(=O)OC(C)OC(=O)Cc1c(C)n(C(=O)c2ccc(Cl)cc2)c2ccc(OC)cc12 (stereo not shown) [Compound 9]           1.81
7  CC=CC=CC(=O)OC(C)OC(=O)Cc1c(C)n(C(=O)c2ccc(Cl)cc2)c2ccc(OC)cc12 (stereo not shown) [Compound 12]           2.81

====

Assay: potentiating effect on thiopental-induced sleep in mice
Format: in vivo, male ddY mice
Details: mouse, in vivo, po
measurement_type: ED50 (mg/kg)

> print(dat)
                                   compound  measurement.type  result.number
1  COc1ccc2c(c1)c(CC(=O)O)c(C)n2C(=O)c1ccc(Cl)cc1 [IM, indomethacin, reference compound]              ED50            205
2  C/C=C/C(=O)OCOC(=O)Cc1c(C)n(C(=O)c2ccc(Cl)cc2)c2ccc(OC)cc12              ED50            455
3  C/C=C/C(=O)OC(C)OC(=O)Cc1c(C)n(C(=O)c2ccc(Cl)cc2)c2ccc(OC)cc12 (stereo not shown)              ED50            261
4  COc1ccc2c(c1)c(CC(=O)OCCOC(C)=O)c(C)n2C(=O)c1ccc(Cl)cc1              ED50            600
